A collection of molecules and their measured NOAEL
System: Rattus norvegicus
Conditions: chronic; duration: 17 weeks; oral; gavage; no effects
Where a name gives a salt, the structure may show the parent alone.

Below, 5 molecules whose answers are already recorded.
CCC(C)COC(=O)CC(C)C (centres undefined) [2-Methylbutyl isovalerate]	> 1000 mg/kg-day
CCCC(=O)OCC(COC(=O)CCC)OC(=O)CCC [Glycerol tributyrate]	> 1000 mg/kg-day
CCC(CC)C(=O)O [2-Ethylbutyric acid]	> 1000 mg/kg-day
CC(C)CCOC=O [Isoamyl formate]	> 1000 mg/kg-day
CC(C)CC=O [3-Methylbutanal]	> 1000 mg/kg-day

For the molecule CC(C)C(=O)O [2-Methylpropanoic acid] , give its reported NOAEL.
> 1000 mg/kg-day

For the molecule CCC(C)COC(C)=O (centres undefined) [2-Methylbutyl acetate] , give its reported NOAEL.
> 1000 mg/kg-day

For the molecule CCCC(=O)OCC(C)CC (centres undefined) [Butanoic acid, 2-methylbutyl ester] , give its reported NOAEL.
> 1000 mg/kg-day

For the molecule CCC(=O)OCCC(C)C [3-Methylbutyl propanoate] , give its reported NOAEL.
> 1000 mg/kg-day
